Recorded normalized RNA/DNA level with ligand (log10) by entry
B1: library; a variant is named by its letters at N, in order (parent)
chain: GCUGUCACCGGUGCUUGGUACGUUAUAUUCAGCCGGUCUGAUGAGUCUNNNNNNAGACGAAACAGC

- Variants of: B1
- TEST_DETAILS: normalized RNA/DNA level with ligand (relative to sTRSVctl = 100) (log10 (% of sTRSVctl)); HEK293T overexpressing SLC46A1; ligand concentration (+) RNA-Seq: 6 mM; higher = less ribozyme self-cleavage, higher mRNA level
- APPLIED_CONDITIONS: with (6R,S)-folinic acid; ligand present: yes
// response body must contain only the number

Past entries and their recorded results:
# input variant: GUAUGA ; wanted: its normalized RNA/DNA level with ligand (log10)
2.03

Value lookup for normalized RNA/DNA level with ligand (log10); key = ACGUUU
2.03

---
Record request: normalized RNA/DNA level with ligand (log10) value, item UUAACG
1.98

I have this variant here, AUAAGA , and I need its recorded normalized RNA/DNA level with ligand (log10).
2.01

# lookup: normalized RNA/DNA level with ligand (log10) of UAUGAG
1.9

Consider the variant AGUUGC and give its measured normalized RNA/DNA level with ligand (log10).
2.03

Give its normalized RNA/DNA level with ligand (log10) value. Item: AAGUCA
1.98

Given the variant GAUCCA , what is its reported normalized RNA/DNA level with ligand (log10)?
2.02

Which normalized RNA/DNA level with ligand (log10) reading was recorded for the variant GCCAGA ?
2.03

Look up normalized RNA/DNA level with ligand (log10): AAUAUU
1.99

# input variant: ACAUUA ; wanted: its normalized RNA/DNA level with ligand (log10)
2.02

Give the measured normalized RNA/DNA level with ligand (log10) of CGGCGG .
2.04

// returns reported normalized RNA/DNA level with ligand (log10) for input CACAUC
2.04
